Molecular target: F2RL3 (Homo sapiens)
Construct: purchased Promega (in-house HiBiT-GPCR construct library, NanoBRET)
Sequence (Q96RI0 18-385): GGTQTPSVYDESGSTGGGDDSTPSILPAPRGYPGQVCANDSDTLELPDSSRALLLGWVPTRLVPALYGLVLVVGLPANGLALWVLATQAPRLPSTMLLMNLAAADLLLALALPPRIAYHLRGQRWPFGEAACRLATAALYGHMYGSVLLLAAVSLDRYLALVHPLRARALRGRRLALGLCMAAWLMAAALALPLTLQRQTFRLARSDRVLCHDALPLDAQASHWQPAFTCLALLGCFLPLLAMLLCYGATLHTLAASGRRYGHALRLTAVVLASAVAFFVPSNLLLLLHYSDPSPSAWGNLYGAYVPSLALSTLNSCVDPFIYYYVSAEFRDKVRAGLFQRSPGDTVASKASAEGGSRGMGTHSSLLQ
Assay: NanoBRET screen HiBiT-F2RL3 in HEK293
Assay type: binding
Settings: F2RL3; tracer 0.1μM
assayEndpoint: NanoBRET Fold Response
Kindly provide the number alone.

{"molecule": "Cc1nc2n(c(=O)c1CCN1CCC(c3noc4cc(F)ccc34)CC1)CCCC2OC(=O)NCCOCCOCCOCCOCCNC(=O)CCc1ccc2n1[B-](F)(F)[N+]1=C(c3ccc[nH]3)C=CC1=C2 (stereo not drawn)", "NanoBRET Fold Response": 0.98}
{"molecule": "CCCn1c(=O)c2[nH]c(-c3ccc(OCC(=O)NCCNC(=O)CCOCCNC(=O)c4ccc(CNC(=O)CCc5ccc6n5[B-](F)(F)[N+]5=C(c7ccc[nH]7)C=CC5=C6)cc4)cc3)nc2n(CCC)c1=O", "NanoBRET Fold Response": 0.99}

Then there is this molecule:
-- ask State NanoBRET Fold Response on F2RL3 (Homo sapiens). Entry: CC(C)N(CC[C@H](c1ccccc1)c1cc(CCNC(=O)CCOCCOCCOCCOCCNC(=O)CCc2ccc3n2[B-](F)(F)[N+]2=C(c4ccc[nH]4)C=CC2=C3)ccc1O)C(C)C
-- reply 1.08

Source: paper PMC8151276
